Data origin, for the record: PubChem BioAssay (NCI)

growth inhibition overview
assay: NCI Yeast Anticancer Drug Screen. Data for the mec2-1 strain (AID 157); conditions: S. cerevisiae mec2-1 strain, at 5.0 µM (retest, dose inferred, filed as 0.5), active compounds read high
This is part of a sample that, as a whole, favours compounds with a hit. Of some 79,000 tested, about 15% had one in any assay.
Write the number in % without appending the unit.

{"columns": ["compound", "growth inhibition, %"],
 "data": [
  ["O=C1/C(=C/c2cccc(F)c2)CCCc2ccccc21", 4],
  ["COc1cccc(C=O)c1O", -3],
  ["CCCCCCCCCCCCCCC[C@@H](O)C[N+](C)(C)CCO", 91],
  ["c1ccc2c(c1)Nc1ccc3ccccc3c1S2", -50]
]}

Continue with the next compound.
INPUT: Fill in: growth inhibition of Clc1ccc(C(CCc2ccc(Br)cc2)Cn2ccnc2)c(Cl)c1 (stereo not drawn) is ___
OUTPUT: 82

* * *

growth inhibition overview
test: NCI Yeast Anticancer Drug Screen. Data for the mec2-1 strain (AID 157); conditions: S. cerevisiae mec2-1 strain, at 50.0 µM (retest, dose inferred, filed as 5.0), active compounds read high
About 79,000 compounds went through this panel and 15% of them were active in at least one assay; those are over-represented in the sample as a whole.
Write the number in % without appending the unit.

The cases that follow already have their growth inhibition on record.
{"columns": ["compound", "growth inhibition (%)"],
 "data": [
  ["Cc1cc(N(CCCOS(C)(=O)=O)CCCOS(C)(=O)=O)ccc1C=Nc1cc(Br)c(O)c(Br)c1", 7],
  ["COc1ccc(C2C3C(=O)OCCOC(=O)C3C2c2ccc(OC)c(OC)c2)cc1OC (stereo not given)", 51],
  ["CCOc1ccc2nc(C)cc(C)c2c1", 31],
  ["O=C1/C(=C/c2cccc(O)c2)SC(=S)N1/C=C\\c1nc2ccccc2[nH]c1=O", -13]
]}

Continue with the next compound.
INPUT: Fill in: growth inhibition of `O=C(/C(=C/c1ccc2c(c1)OCO2)c1ccccc1)c1ccc(OCCN2CCCC2)cc1` is ___
OUTPUT: -8

* * *

assay: NCI Yeast Anticancer Drug Screen. Data for the sgs1 mgt1 strain (AID 161);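 further: 0% = growth of cultures given vehicle only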; conditions: S. cerevisiae sgs1 mgt1 strain, at 5.0 µM (retest, dose inferred, filed as 0.5), active compounds read high
Compounds without any hit were thinned out: in the full panel of roughly 79,000, 15% have a hit.
quantity: growth inhibition (%)
Write the number in % without appending the unit.

The cases that follow already have their growth inhibition on record.
{"columns": ["compound", "quantity", "val"],
 "data": [
  ["CCN(CC)C(=S)N/N=C(\\C)c1cccc(C)n1", "growth inhibition", 62],
  ["N/C(CC(=O)NOC(=O)c1ccccc1)=N/OC(=O)c1ccccc1", "growth inhibition", 54],
  ["COc1ccc2c(c1)C1(C)CCCC(C)(C(=O)O)C1CC2 (configuration not stated)", "growth inhibition", 1],
  ["O=C(/C=C\\c1cccc2ccccc12)c1ccccn1", "growth inhibition", 12],
  ["NCC(=O)N/N=C/c1ccc([N+](=O)[O-])o1", "growth inhibition", 0]
]}

INPUT: Fill in: growth inhibition of CN1C(/C=C/c2ccc(O)c3ncccc23)CCC2CCCC(O)C21 (configuration not stated) is ___
OUTPUT: 9

INPUT: Try this compound next: `Cc1ccc(NC(=O)Oc2ccc(OC(=O)Cc3ccccc3)cc2)cc1NC(=O)Oc1ccc(OC(=O)Cc2ccccc2)cc1`
OUTPUT: 2

INPUT: Try this compound next: `CCCCCCC(/C=C/c1ccccc1)=N\O`
OUTPUT: 6

* * *

experiment: NCI Yeast Anticancer Drug Screen. Data for the rad50 strain (AID 155);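 further: 0% = growth of vehicle-only cultures of the same strain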; details: S. cerevisiae rad50 strain growth inhibition; at 50.0 µM
About 79,000 compounds went through this panel and 15% of them were active in at least one assay; those are over-represented in the sample as a whole. The source made the active and inactive calls. No stated cut-off is given here; in the data, active means growth inhibition above about 70%; inactive means the rest.
API: response.call in class 1 (active), class 0 (inactive)

{"columns": ["compound", "labelClass"],
 "data": [
  ["COc1ccc(/C=C2\\Sc3scc(-c4ccc([N+](=O)[O-])cc4)[n+]3C2=O)cc1OC", "class 0"],
  ["Oc1ccccc1C(=NNc1ccccc1)c1ccccc1O", "class 1"],
  ["Cc1nc(Nc2ccccc2)sc1C(=O)NNc1ccc([N+](=O)[O-])cc1[N+](=O)[O-]", "class 0"],
  ["CCOC(=O)/C(C)=N/Nc1cc(Cl)ccc1O", "class 1"]
]}

INPUT: Which result was noted for this compound in the test: Cc1ccc2c(c1)C(O)(c1ccccc1)CCS2 (stereo not drawn)
OUTPUT: class 1

INPUT: Try this compound next: CC(c1ccc2ccccc2c1)c1c(F)cccc1C(=O)O (stereo not drawn)
OUTPUT: class 1

* * *

experiment: NCI Yeast Anticancer Drug Screen. Data for the cln2 rad14 strain (AID 165);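 further: 0% = growth equal to vehicle treated cultures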; settings: S. cerevisiae cln2 rad14 strain, at 5.0 µM (retest, dose inferred, filed as 0.5)
This is part of a sample that, as a whole, favours compounds with a hit. Of some 79,000 tested, about 15% had one in any assay. Calls of active or inactive are those of the source. No stated cut-off is given here; in the data, active means growth inhibition above about 70%; inactive means the rest.
API: response.call in 1 for active, 0 for inactive

Example cases with answers are listed next.
{"columns": ["molecule", "labelClass"],
 "data": [
  ["CCCn1c(=O)c2ccccc2[n+]2c(-c3ccc([N+](=O)[O-])cc3)csc12", 0],
  ["C=C1OC(=O)C(=O)N1CC(=O)O", 0],
  ["CN(C)C(=S)SN(C)C(=O)Nc1ccccc1", 0],
  ["Nc1ccccc1O", 0],
  ["C=C(CN(C)C)C(=O)c1ccccc1[N+](=O)[O-]", 1],
  ["CCCCCCCCN(CCCCCCCC)CC(O)c1cc(-c2ccc(Cl)cc2)nc2c(Cl)cccc12 (configuration not stated)", 0],
  ["O=C1OC(CC(=O)c2ccc(Cl)cc2Cl)C(Cl)=C1Cl (configuration not stated)", 0],
  ["O=C1C(Br)=C(Br)C(=O)c2ccccc21", 1],
  ["CN(/N=C\\c1ccc2ccccc2c1)C1=NCCCN1", 1],
  ["O=c1cc(-c2ccccc2)oc2ccc(-c3ccc4oc(-c5ccccc5)cc(=O)c4c3)cc12", 0]
]}

INPUT: Which result was noted for this molecule in the test: `CN(C)CCCc1ccc2oc3ccccc3c2c1`
OUTPUT: 0

INPUT: Try this molecule next: `CCN=C(N)Nc1nc(-c2ccc(Cl)cc2)cs1`
OUTPUT: 0

* * *

assay: NCI Yeast Anticancer Drug Screen. Data for the sgs1 mgt1 strain (AID 161);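 further: 0% = growth of cultures given vehicle only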; details: S. cerevisiae sgs1 mgt1 strain, at 5.0 µM (retest, dose inferred, filed as 0.5)
The panel holds about 79,000 compounds, 15% with a hit somewhere; the sample as a whole holds those more often. The source made the active and inactive calls. No stated cut-off is given here; in the data, active means growth inhibition above about 70%; inactive means the rest.
API: response.call in active, inactive

Example cases with answers are listed next.
{"columns": ["compound", "labelClass"],
 "data": [
  ["CCCCCCCCCCCCCCCCCC1=NCCN1", "inactive"],
  ["CN(C)c1ccc(C2(c3ccc(N(C)C)cc3)OC(=O)c3ccccc32)cc1", "inactive"],
  ["COc1ccccc1C(=O)c1ccc2ccccc2c1", "inactive"]
]}

INPUT: Which result was noted for this compound in the test: COc1cc2c[n+](C)c3c4ccccc4ccc3c2cc1OC (tested in a mixture with another compound)
OUTPUT: inactive

INPUT: Try this compound next: `CCn1c2ccc(N)cc2c2c(N)c(-n3cccc3)ccc21`
OUTPUT: inactive

INPUT: Try this compound next: `Cc1cc2c(cc1C)C(=O)OC2=O`
OUTPUT: inactive

INPUT: Try this compound next: `CCCC/C=C(/CCCNCCCC)[Si](C)(C)C`
OUTPUT: active

INPUT: Try this compound next: CC1(C)OC2COC3(CNO)OC(C)(C)OC3C2O1 (stereo not given)
OUTPUT: inactive

INPUT: Try this compound next: `COc1ccc(-c2c(C#N)cc(OC)c(OC)c2OC)c(C=O)c1`
OUTPUT: inactive

INPUT: Try this compound next: CCOC(=O)C1=C(C)Oc2cc3c(cc2C1c1cc(OC)c(OC)c(OC)c1)OCO3 (stereo not given)
OUTPUT: inactive

INPUT: Try this compound next: `CC(C)N1C(=O)C=CC1=O`
OUTPUT: inactive

INPUT: Try this compound next: `O=C(CBr)c1cccc(OC(=O)c2ccccc2)c1`
OUTPUT: active

* * *

Assay: NCI Yeast Anticancer Drug Screen. Data for the bub3 strain (AID 167)
Conditions: S. cerevisiae bub3 mutant strain, at 5.0 µM (retest, dose inferred, filed as 0.5), active compounds read high
Method: Growth inhibition of yeast strains with defined genetic alterations is measured as a screen for potential anti-cancer activity. Selected strains with alterations in DNA damage repair or cell cycle control were exposed to compounds and growth inhibition was measured relative to vehicle treated controls. The strain used in this assay is bub3
About 79,000 compounds went through this panel and 15% of them were active in at least one assay; those are over-represented in the sample as a whole.
Label MET when growth inhibition is at or above 10%; otherwise label NOT MET.

Example cases with answers are listed next.
{"columns": ["compound", "labelClass"],
 "data": [
  ["CS(=O)(=O)c1nnnn1-c1ccccc1", "NOT MET"],
  ["CCCCCNC(=O)C1C(=O)N(CCCCC)C(=O)/C1=N\\N (configuration not stated)", "NOT MET"],
  ["Oc1cc(Br)cc2cc(Br)cnc12", "MET"],
  ["Clc1c2ccccc2cc2cccnc12", "NOT MET"],
  ["CC(C)(C)c1cc(C(O)(C(F)(F)F)C(F)(F)F)c(Cl)c(C(O)(C(F)(F)F)C(F)(F)F)c1", "MET"],
  ["O=[N+]([O-])/C(=C\\c1cccs1)c1ccccc1", "MET"]
]}

INPUT: Could you tell me if the measured growth inhibition of CC1C(=O)C(C)C(c2ccccc2)N(C)C1c1ccccc1 (configuration not stated) reaches 10% or more?
OUTPUT: MET

INPUT: Try this compound next: CCC12C=CCN3CCC4(c5cc(C(c6ccccn6)c6cc7ccccc7n6C)c(OC)cc5N(C)C4C(O)(C(=O)OC)C1OC(C)=O)C32 (configuration not stated)
OUTPUT: NOT MET

INPUT: Try this compound next: `O=Cc1cc([N+](=O)[O-])ccc1O`
OUTPUT: MET
